Can you tell me T/C for the items I'm about to list?
test system: BDF1 mice, B16 melanoma s.c., survival/tumor T/C; test: NCI In Vivo Anticancer Drug Screen. Data for tumor model B16 Melanoma (subcutaneous) in B6D2F1 (BDF1) mice; conditions: endpoint: median survival time; dose: 12.5 mg/kg/injection; schedule: Q01DX009 (ip); vehicle: Klucel (hydroxypropylcellulose) (HPC); higher = longer survival
Inconclusive results are not listed.

Compound	T/C
O=[N+]([O-])c1ccc(/C=N/c2ncc(Br)s2)o1	114 % of control
COc1cc2c[n+](C)c3c4cc5c(cc4ccc3c2cc1OC)OCO5	116 % of control
CCO/C=C1\SC(=S)N(c2ccc(C(=O)O)cc2)C1=O	118 % of control
CN(C)/N=N/c1nc[nH]c1C(N)=O	101 % of control
Cc1c(N)nc([C@H](CC(N)=O)NC[C@H](N)C(N)=O)nc1C(=O)N[C@H](C(=O)N[C@H](C)[C@@H](O)[C@H](C)C(=O)N[C@H](C(=O)NCCc1nc(-c2nc(C(=O)NCCC[S+](C)C)cs2)cs1)[C@@H](C)O)C(OC1OC(CO)C(O)C(O)C1OC1OC(CO)C(O)C(OC(N)=O)C1O)c1cnc[nH]1 (stereo partly specified)	168 % of control

Alright, here's another compound for you.
Please fill in: T/C reported for CC(=O)NNC(=O)c1ccccn1 = 92 % of control

###

tested on: BDF1 mice, B16 melanoma s.c., survival/tumor T/C; experiment: NCI In Vivo Anticancer Drug Screen. Data for tumor model B16 Melanoma (subcutaneous) in B6D2F1 (BDF1) mice; conditions: endpoint: median survival time; dose: 4.0 mg/kg/injection; schedule: Q01DX009 (ip); vehicle: saline; higher = longer survival
Results filed as inconclusive are left out.
Measured Parameter: T/C

> print(dat)
                                   molecule                         target.under.test  measured.parameter          observed
1  C[CH2][Ge]1([CH2]C)[CH2]CC2(CCN(CCCN(C)C)C2)C[CH2]1  BDF1 mice, B16 melanoma s.c., survival/tumor T/C                 T/C   98 % of control
2                        O=[N+]([O-])O.[Ga]  BDF1 mice, B16 melanoma s.c., survival/tumor T/C                 T/C  109 % of control
3                  O=NN(CCCl)C(=O)NC1CCCCC1  BDF1 mice, B16 melanoma s.c., survival/tumor T/C                 T/C  115 % of control
4  O=C1c2ccccc2C(=O)c2c(NCCNCCO)ccc(NCCNCCO)c21  BDF1 mice, B16 melanoma s.c., survival/tumor T/C                 T/C   92 % of control

Now turn to the next compound.
// field: T/C; key: O=NN(CCCl)C(=O)NCCCl ; value = 184 % of control

###

Field: T/C. Provide a value for each of the compounds that follow.
system: BDF1 mice, B16 melanoma s.c., survival/tumor T/C; assay: NCI In Vivo Anticancer Drug Screen. Data for tumor model B16 Melanoma (subcutaneous) in B6D2F1 (BDF1) mice; details: endpoint: median survival time; dose: 6.25 mg/kg/injection; schedule: Q01DX009 (ip); vehicle: water; higher = longer survival
Records with an inconclusive call do not appear.

See these solved cases before continuing.
> print(dat)
                            molecule  measured.parameter          observed
1      COC(=O)c1csc(-c2csc(CCN)n2)n1                 T/C   89 % of control
2           Cn1c(=O)[nH]c2nncnc2c1=O                 T/C  117 % of control
3  CCOC(=O)c1csc(CCNC(=O)c2ccccc2)n1                 T/C  101 % of control

// switching to the query compound
What the record says about NCCc1nc(-c2nc(C(=O)O)cs2)cs1 : T/C is 98 % of control

###

Assign T/C to each entry below.
Tested on: BDF1 mice, B16 melanoma s.c., survival/tumor T/C
Assay: NCI In Vivo Anticancer Drug Screen. Data for tumor model B16 Melanoma (subcutaneous) in B6D2F1 (BDF1) mice
Conditions: endpoint: median survival time; dose: 50.0 mg/kg/injection; schedule: Q04DX003 (ip); vehicle: saline; higher = longer survival
Method: The antitumor activity of compounds was measured in mice bearing transplantable tumors. Survival or tumor size were measured and the results are expressed as the measurement made in the treated group (T) divided by the measurement made in the vehicle treated control group (C). The tumor model used in this assay is B16 Melanoma (subcutaneous) in B6D2F1 (BDF1) mice
Results filed as inconclusive are left out.

Sample answers from the record:
> print(dat)
                                   molecule          observed
1  C[C@H](CN1CC(=O)NC(=O)C1)N1CC(=O)NC(=O)C1  111 % of control
2  Cc1cc(NC(=O)NCc2ccc(N3C(N)=NC(N)=NC3(C)C)cc2)ccc1S(=O)(=O)F  106 % of control
3  CC(CN1CC(=O)NC(=O)C1)N1CC(=O)NC(=O)C1 (stereo not given)  111 % of control
4  CC1(C)N=C(N)N=C(N)N1c1ccc(OCC(=O)Nc2ccc(S(=O)(=O)F)cc2)c(Cl)c1  115 % of control

Shift focus to the following entry.
Item O=c1[nH]cc(F)c(=O)[nH]1 was tested on BDF1 mice, B16 melanoma s.c., survival/tumor T/C; the reported T/C is 113 % of control

###

System: BDF1 mice, B16 melanoma s.c., survival/tumor T/C
Assay: NCI In Vivo Anticancer Drug Screen. Data for tumor model B16 Melanoma (subcutaneous) in B6D2F1 (BDF1) mice
Conditions: endpoint: median survival time; dose: 2.0 mg/kg/injection; schedule: Q01DX009 (ip); vehicle: Klucel (hydroxypropylcellulose) (HPC)
Procedure: The antitumor activity of compounds was measured in mice bearing transplantable tumors. Survival or tumor size were measured and the results are expressed as the measurement made in the treated group (T) divided by the measurement made in the vehicle treated control group (C). The tumor model used in this assay is B16 Melanoma (subcutaneous) in B6D2F1 (BDF1) mice
Records with an inconclusive call do not appear. How the source made its calls: active means survival T/C of 150% or more; inactive means T/C below 125% in these data.
Log the outcome using a class from Yes = active, No = inactive

For CC[C@](O)(C(=O)O)c1cc2n(c(=O)c1CO)Cc1cc3ccccc3nc1-2 , which call appears in the assay record?
No

Entry CO[C@@]12[C@H](COC(N)=O)C3=C(C(=O)C(C)=C(N)C3=O)N1C[C@@H]1N[C@@H]12 : call = ?
Yes

Please let me know the test result on file for FC(F)c1nc2nc(Cl)c(Cl)nc2[nH]1 .
No

Values were extracted from PubChem BioAssay AID194.
